- experimental_system: Bcl-2 protein (histag-Bcl-2, UniProtKB P10415) (Homo sapiens (Human), UniProt P10415)
- Sequence (P10415 whole entry): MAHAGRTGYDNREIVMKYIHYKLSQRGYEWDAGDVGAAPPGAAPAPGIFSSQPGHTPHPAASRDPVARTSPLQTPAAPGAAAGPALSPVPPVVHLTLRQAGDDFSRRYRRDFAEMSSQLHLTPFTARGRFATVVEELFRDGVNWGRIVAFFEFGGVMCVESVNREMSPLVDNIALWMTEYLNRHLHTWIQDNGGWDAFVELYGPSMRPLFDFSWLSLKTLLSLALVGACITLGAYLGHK
- test_description: Inhibition of Bcl-2 by the fluorescence polarisation technique
- Assay type: binding
- experimental_setup: fluorescence polarisation test; incubation for 2 hours; read-out: IC50 (nM) Bcl-2 FP
// reported IC50 for each item listed
measurement_label: IC50

{"columns": ["molecule", "measurement_label", "result"],
 "data": [
  ["Cc1c(C(=O)N(C)c2ccc(O)cc2)cc(-c2cc3c(cc2C(=O)N2Cc4ccccc4C[C@H]2C)CN(C(=O)Oc2ccccc2OCCN(C)C)CC3)n1C [Example 392]", "IC50", "2 nM"],
  ["CN(C(=O)c1cc(-c2cc3c(cc2C(=O)N2Cc4ccccc4C[C@H]2CN2CCOCC2)CN(S(=O)(=O)Cc2ccccc2)C3)n2c1CCCC2)c1ccc(O)cc1 [Example 38]", "IC50", "23 nM"],
  ["Cc1c(C(=O)N(C)c2ccc(O)cc2)cc(-c2cc3c(cc2C(=O)N2Cc4ccccc4C[C@H]2C)CN(C(=O)Nc2ccccc2)CC3)n1C [Example 253]", "IC50", "5.2 nM"]
]}

====

// reported IC50 for each item listed
- System: RS4; 11 leukaemia cell line
- test_description: In vitro cytotoxicity, Microculture Tetrazolium Assay (MTT)
- Assay type: cell-based
- experimental_setup: Homo sapiens, 11 cells exposed for 48 hours

{"columns": ["compound", "sign", "IC50 [nM]"],
 "data": [
  ["CN(C(=O)c1cc(-c2cc3c(cc2C(=O)N2Cc4ccccc4C[C@H]2CN2CCOCC2)CN(C(=O)COc2ccccc2)C3)n2c1CCCC2)c1ccc(O)cc1 [Example 156]", "=", 121],
  ["CCN(C(=O)c1cc(-c2cc3c(cc2C(=O)N2Cc4ccccc4C[C@H]2CN2CCOCC2)CN(C(=O)Oc2ccccc2)CC3)n(C)c1C)c1ccc(O)cc1 [Example 185]", "=", 4.5],
  ["Cc1c(C(=O)N(C)c2ccc(O)cc2)cc(-c2cc3c(cc2C(=O)N2Cc4ccccc4C[C@H]2CCCN2CCOCC2)CN(C(=O)Oc2ccccc2)CC3)n1C [Example 808]", "=", 1.6],
  ["C[C@@H]1Cc2ccccc2CN1C(=O)c1cc2c(cc1-c1cc(C(=O)N(C)c3ccc(O)cc3)c3n1CCCC3)CCN(C(=O)N1CCC(c3ccccc3)C1)C2 (stereo partly drawn) [Example 67]", "=", 51],
  ["Cc1c(C(=O)N(C)c2ccccc2)cc(-c2cc3c(cc2C(=O)N2Cc4ccccc4C[C@H]2C)CN(C(=O)Oc2ccc(NCCN(C)C)cc2)CC3)n1C [Example 489]", "=", 68],
  ["Cc1c(C(=O)N(C)c2ccc(O)cc2)cc(-c2cc3c(cc2C(=O)N2Cc4ccccc4C[C@H]2C)CN(C(=O)[C@@H](N)c2ccccc2)C3)n1C [Example 173]", ">", 600]
]}

====

- Test system: RS4; 11 leukaemia cell line
- test_description: In vitro cytotoxicity, Microculture Tetrazolium Assay (MTT)
- Type: cell-based
- experimental_setup: Homo sapiens, 11 cells exposed for 48 hours
So basically, if IC50 comes in under 60 nM it's 1.0, and if it's 60 nM or more it's 0.0.

{"columns": ["molecule", "experimental_system", "class_assignment"],
 "data": [
  ["C#Cc1ccc(OC(=O)N2CCc3cc(-c4cc(C(=O)N(C)c5ccc(O)cc5)c(C)n4C)c(C(=O)N4Cc5ccccc5C[C@H]4CN4CCOCC4)cc3C2)cc1 [Example 564]", "RS4; 11 leukaemia cell line", 1.0],
  ["C[C@@H]1Cc2ccccc2CN1C(=O)c1cc2c(cc1-c1cc(C(=O)N(C)c3ccc(O)cc3)c3n1CCCC3)CN(C(=O)OC(C)(C)C)C2 [Example 13]", "RS4; 11 leukaemia cell line", 0.0],
  ["Cc1c(C(=O)N(C)c2ccc(O)cc2)cc(-c2cc3c(cc2C(=O)N2Cc4ccccc4C[C@H]2CN2CCOCC2)CN(C(=O)Oc2cccc(C(=O)O)c2)CC3)n1C [Example 709]", "RS4; 11 leukaemia cell line", 0.0],
  ["C[C@@H]1Cc2ccccc2CN1C(=O)c1cc2c(cc1-c1cc(C(=O)N(C)c3ccc(O)cc3)c3n1CCCC3)CN(C(=O)N1CCC(c3ccccc3)C1)C2 (stereo partly drawn) [Example 66]", "RS4; 11 leukaemia cell line", 0.0],
  ["Cc1c(C(=O)N(C)c2ccc(O)cc2)cc(-c2cc3c(cc2C(=O)N2Cc4ccccc4C[C@H]2C)CN(C(=O)[C@H](N)c2ccccc2)C3)n1C [Example 174]", "RS4; 11 leukaemia cell line", 0.0]
]}

====

- experimental_system: Bcl-2 protein (histag-Bcl-2, UniProtKB P10415) (Homo sapiens (Human), UniProt P10415)
- test_description: Inhibition of Bcl-2 by the fluorescence polarisation technique
- Assay type: binding
- experimental_setup: fluorescence polarisation test; incubation for 2 hours; read-out: IC50 (nM) Bcl-2 FP
// reported IC50 for each item listed
measurement_label: IC50 (nM)

{"columns": ["compound", "measurement_label", "measured_number"],
 "data": [
  ["Cc1c(C(=O)N(C)c2ccc(O)cc2)cc(-c2cc3c(cc2C(=O)N2Cc4ccccc4C[C@H]2CN2CCOCC2)CN(C(=O)OC2CCCC2)CC3)n1C [Example 796]", "IC50", 6.2],
  ["Cc1c(C(=O)N(C)c2ccc(O)cc2)cc(-c2cc3c(cc2C(=O)N2Cc4ccccc4C[C@H]2CN2CCOCC2)CN(C(=O)Cc2ccccc2)CC3)n1C [Example 89]", "IC50", 3.5],
  ["Cc1c(C(=O)N(C)c2ccc(O)cc2)cc(-c2cc3c(cc2C(=O)N2Cc4ccccc4C[C@H]2C)CN(C(=O)Cc2ccccc2)CC3)n1C [Example 75]", "IC50", 4],
  ["Cc1c(C(=O)N(C)c2ccccc2)cc(-c2cc3c(cc2C(=O)N2Cc4ccccc4C[C@H]2C)CN(C(=O)Oc2cccc(N(C)CCN(C)C)c2)CC3)n1C [Example 446]", "IC50", 4.3],
  ["Cc1c(C(=O)N(C)c2ccc(O)cc2)cc(-c2cc3c(cc2C(=O)N2Cc4ccccc4C[C@H]2CN2CCOCC2)CN(C(=O)CC24CC5CC(CC(C5)C2)C4)CC3)n1C [Example 798]", "IC50", 9.1],
  ["CN(C(=O)c1cc(-c2cc3c(cc2C(=O)N2Cc4ccccc4C[C@H]2CN2CCOCC2)CN(C(=O)Oc2ccc(C(F)(F)F)cc2)CC3)n2c1CCCC2)c1ccc(O)cc1 [Example 124]", "IC50", 12],
  ["C[C@@H]1Cc2ccccc2CN1C(=O)c1cc2c(cc1-c1cc(C(=O)N(C)c3ccc(O)cc3)c3n1CCCC3)CCN(C(=O)NC(C)(C)C)C2 [Example 48]", "IC50", 8.7],
  ["C[C@@H]1Cc2ccccc2CN1C(=O)c1cc2c(cc1-c1cc(C(=O)N(C)c3ccc(O)cc3)c3n1CCCC3)CCN(C(=O)Oc1ccc(N)cc1)C2 [Example 58]", "IC50", 4.2],
  ["Cc1c(C(=O)N(C)c2ccccc2)cc(-c2cc3c(cc2C(=O)N2Cc4ccccc4C[C@H]2C)CN(C(=O)Cc2ccc(NCCN(C)C)cc2)CC3)n1C [Example 149]", "IC50", 11],
  ["C[C@@H]1Cc2ccccc2CN1C(=O)c1cc2c(cc1-c1cc(C(=O)N(C)c3ccc(O)cc3)c3n1CCCC3)CCN(S(=O)(=O)c1ccccc1)C2 [Example 39]", "IC50", 14],
  ["CC(=O)N1Cc2cc(C(=O)N3Cc4ccccc4C[C@H]3C)c(-c3cc(C(=O)N(C)c4ccc(O)cc4)c(C)n3C)cc2C1 [Example 112]", "IC50", 42],
  ["Cc1c(C(=O)N(C)c2ccc(O)cc2)cc(-c2cc3c(cc2C(=O)N2Cc4ccccc4C[C@H]2C)CN(C(=O)Oc2ccc(F)cc2)C3)n1C [Example 106]", "IC50", 5.3],
  ["COc1cccc(CCC(=O)N2CCc3cc(-c4cc(C(=O)N(C)c5ccc(O)cc5)c(C)n4C)c(C(=O)N4Cc5ccccc5C[C@H]4CN4CCOCC4)cc3C2)c1 [Example 135]", "IC50", 8.4],
  ["Cc1c(C(=O)N(C)c2ccc(O)cc2)cc(-c2cc3c(cc2C(=O)N2Cc4ccccc4C[C@H]2C)CN(C(=O)[C@@H](N)c2ccccc2)C3)n1C [Example 173]", "IC50", 55],
  ["Cc1c(C(=O)N(C)c2ccccc2)cc(-c2cc3c(cc2C(=O)N2Cc4ccccc4C[C@H]2C)CN(C(=O)Oc2ccc(CCC(=O)N(C)C)cc2)CC3)n1C [Example 788]", "IC50", 4.4],
  ["CN(C(=O)c1cc(-c2cc3c(cc2C(=O)N2Cc4ccccc4C[C@H]2CN2CCOCC2)CN(C(=O)Oc2ccc(OC(F)(F)F)cc2)CC3)n2c1CCCC2)c1ccc(O)cc1 [Example 125]", "IC50", 8.7],
  ["Cc1c(C(=O)N(C)c2ccc(O)cc2)cc(-c2cc3c(cc2C(=O)N2Cc4ccccc4C[C@H]2C)CN(C(=O)Cc2ccc4c(c2)OCO4)C3)n1C [Example 172]", "IC50", 3.4],
  ["CN(C(=O)c1cc(-c2cc3c(cc2C(=O)N2Cc4ccccc4C[C@H]2CN2CCOCC2)CN(S(=O)(=O)Cc2ccccc2)CC3)n2c1CCCC2)c1ccc(O)cc1 [Example 4]", "IC50", 9.2],
  ["CN(C(=O)c1cc(-c2cc3c(cc2C(=O)N2Cc4ccccc4C[C@H]2CN2CCOCC2)CN(C(=O)Oc2ccc(C#N)cc2)CC3)n2c1CCCC2)c1ccc(O)cc1 [Example 127]", "IC50", 3.3],
  ["Cc1c(C(=O)N(C)c2ccc(O)cc2)cc(-c2cc3c(cc2C(=O)N2Cc4ccccc4C[C@H]2CN(C)C)CN(C(=O)Cc2ccccc2)CC3)n1C [Example 777]", "IC50", 4.1],
  ["C[C@@H]1Cc2ccccc2CN1C(=O)c1cc2c(cc1-c1cc(C(=O)N(C)c3ccc(O)cc3)c3n1CCCC3)CN(Cc1ccccn1)C2 [Example 28]", "IC50", 23],
  ["CCCN(C(=O)c1cc(-c2cc3c(cc2C(=O)N2Cc4ccccc4C[C@H]2CN2CCOCC2)CN(C(=O)Oc2ccccc2)CC3)n(C)c1C)c1ccc(O)cc1 [Example 186]", "IC50", 2.5]
]}
